Tested on: LOX IMVI melanoma
Assay: NCI tumour cell line growth inhibition, 48 h
assay endpoint: GI50

Q: Query (molecule): CN1CCN(c2ccc3nc(-c4ccc5nc(-c6ccc(C(F)(F)F)cc6)[nH]c5c4)[nH]c3c2)CC1 ; field requested: GI50
Result: 1.82 µM

Q: Need GI50, item N#C/C(=C/c1cccs1)c1cccs1
Result: > 100 µM

Q: Given the molecule CC(=O)[CH-]C(=O)c1ccccc1.CC(=O)[CH-]C(=O)c1ccccc1.[O-]c1ccc(O)cc1.[O-]c1ccc(O)cc1.[Ti+4] , what is its reported GI50?
Result: 14.3 µM

Q: For CC(=O)OC1C(O)COC(Oc2c(C)c3c4c(c2O)[C@@H](C)CC[C@@H]4[C@@H](C)C[C@H]3C=C(C)C)C1O (stereo not given in full) , what is its reported GI50?
Result: 18 µM

Q: Param item = O=c1cc(-c2ccccc2)oc2cc(OCc3cn(Cc4ccc(F)cc4)nn3)cc(O)c12 ; retrieve measured GI50.
Result: > 100 µM
